Assignment: determine reported normalized growth for the given compounds.
test: chemical genetic growth profiling, strain panel (AID 1159580);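 also: tested at 20 µM; growth read once vehicle control cultures reached saturation at 30 °C; 1 = growth at the plate median or of vehicle wells; lower values mean less growth of the strain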; conditions: S. cerevisiae deletion strains, growth OD, locus YER155C, strain BEM2 (second series), hits give low values
Where a name gives a salt, the structure may show the parent alone. The campaign covered roughly 5,500 compounds. About 2,000 (36%) were called active. Not shown: some 18% with an inconclusive outcome. This is one part of the list. Where a SMILES comes first, the peptide text is derived from it. The star is where a group is joined. Tfa = O=C(C(F)(F)F)*
Give bare numbers.

# example entries with known answers
{"compound": "CC(C(=O)O)c1ccc(C(=O)c2cccs2)cc1 (configuration not stated)", "reading": 1}
{"compound": "Cc1cccc(C)c1NC1=NCCCS1", "reading": 1.01}
{"compound": "Cc1cc(NC(=O)C2=C(O)c3ccccc3S(=O)(=O)N2C)no1", "reading": 0.976}
{"compound": "COC(=O)C[C@H]1C(C)(C)C(=O)[C@@H]2CC3=C(CC[C@]4(C)C3=CC(=O)O[C@H]4c3ccoc3)[C@@]1(C)C2=O", "reading": 0.988}
{"compound": "O=C1[C@H](CCC(O)c2ccc(F)cc2)[C@@H](c2ccc(O)cc2)N1c1ccc(F)cc1 (some centres not stated)", "reading": 0.973}

I have 7 compounds here; please give me normalized growth for each one.
1. COC(=O)[C@@H]1OC(=O)[C@H]2O[C@@]23[C@@]1(C)CCC1[C@@]2(C)CCC(=O)C(C)(C)C2C[C@@H](OC(C)=O)[C@]13C (some centres not stated)
2. CCC(C)(C)C(=O)O[C@H]1C[C@@H](C)C=C2C=C[C@H](C)[C@H](CC[C@@H]3C[C@@H](O)CC(=O)O3)[C@H]21
3. CC(=O)OCC(OC(C)=O)C(OC(C)=O)C(OC(C)=O)C(OC(C)=O)C(COC(C)=O)OC(C)=O (configuration not stated)
4. CC1=CC2C(CC1=O)C(C)=CCC2C(C)C (configuration not stated)
5. Oc1ccc(Cl)cc1
6. CC(C)C(NC(=O)C(Cc1ccc(O)cc1)NC(=O)C(NC(=O)C(F)(F)F)C(C)C)C(=O)O (stereo not drawn) (Tfa-Val-Tyr-Val-OH; configuration not given here)
7. CC[C@H](C)C(=O)O[C@H]1CCC=C2C=C[C@H](C)C(CCC3C[C@@H](O)CC(=O)O3)[C@H]21 (some centres not stated)

## Result
[1.01, 1, 0.981, 0.98, 1.02, 0.983, 1.02]
